Biological target: transferrin receptor (hTfR) (Homo sapiens, UniProt P02786)
Sequence (P02786 whole entry): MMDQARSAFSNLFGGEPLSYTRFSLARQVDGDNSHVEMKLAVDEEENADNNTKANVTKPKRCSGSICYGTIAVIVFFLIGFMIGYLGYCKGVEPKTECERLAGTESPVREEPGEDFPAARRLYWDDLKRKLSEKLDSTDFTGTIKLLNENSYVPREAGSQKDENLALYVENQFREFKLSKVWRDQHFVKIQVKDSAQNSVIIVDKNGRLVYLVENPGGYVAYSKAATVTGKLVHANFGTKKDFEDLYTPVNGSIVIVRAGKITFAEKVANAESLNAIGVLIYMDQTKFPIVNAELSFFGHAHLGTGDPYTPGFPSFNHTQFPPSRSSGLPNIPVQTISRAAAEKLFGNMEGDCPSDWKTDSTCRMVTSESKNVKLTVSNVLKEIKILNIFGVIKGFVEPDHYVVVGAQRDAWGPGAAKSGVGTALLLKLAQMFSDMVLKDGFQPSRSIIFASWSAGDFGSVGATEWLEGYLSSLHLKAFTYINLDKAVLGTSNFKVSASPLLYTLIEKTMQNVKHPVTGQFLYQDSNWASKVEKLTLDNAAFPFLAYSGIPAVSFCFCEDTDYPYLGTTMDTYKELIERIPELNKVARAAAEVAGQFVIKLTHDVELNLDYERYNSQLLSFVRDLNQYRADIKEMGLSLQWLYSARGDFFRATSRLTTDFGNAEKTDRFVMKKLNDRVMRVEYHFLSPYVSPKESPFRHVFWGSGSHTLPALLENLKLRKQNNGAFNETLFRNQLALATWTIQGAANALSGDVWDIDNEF
Experiment: Intermolecular interaction evaluation test between transferrin receptor (hTfR) and peptide by surface plasmon resonance (SPR)
Assay type: binding
Details: SPR; peptides, linker-added peptides and FITC conjugates, Patent ID 203-230; read-out: KD
PROPERTY: Kd

>>> measurement("CC[C@H](C)[C@@H]1NC(=O)[C@H](Cc2ccc(OC)cc2)NC(=O)[C@H](Cc2ccc(O)cc2)NC(=O)[C@H](CC(N)=O)NC(=O)[C@H](Cc2c[nH]c3ccccc23)N(C)C(=O)[C@H](C(C)C)NC(=O)[C@H](Cc2cccc(Cl)c2)N(C)C(=O)[C@H](C(C)C)NC(=O)[C@H](CCC(=O)O)NC(=O)CSC[C@@H](C(N)=O)NC(=O)[C@H](Cc2ccc(O)cc2)N(C)C(=O)[C@H](Cc2ccccc2)NC(=O)[C@H](CCCNC(=N)N)NC(=O)[C@H](CCCNC(=N)N)NC(=O)[C@H]([C@@H](C)CC)NC1=O")
"1 to 100 nM"

Consider the compound `CC[C@H](C)[C@@H]1NC(=O)[C@H](Cc2ccc(OC)cc2)NC(=O)[C@H](Cc2ccc(O)cc2)NC(=O)[C@H](CC(N)=O)NC(=O)[C@H](Cc2c[nH]c3ccccc23)N(C)C(=O)[C@H](C(C)C)NC(=O)[C@H](Cc2cccc(Cl)c2)N(C)C(=O)[C@H](C(C)C)NC(=O)[C@H](C)N(C)C(=O)CSC[C@@H](C(N)=O)NC(=O)[C@H](Cc2ccc(O)cc2)N(C)C(=O)[C@H](Cc2ccccc2)NC(=O)[C@H](CCCNC(=N)N)NC(=O)[C@H](CCCCN)NC(=O)[C@H]([C@@H](C)CC)NC1=O` and give its measured Kd. 1 to 100 nM

====

Biological target: transferrin receptor (hTfR) (Homo sapiens)
Assay: Intermolecular interaction evaluation test between transferrin receptor (hTfR) and peptide by surface plasmon resonance (SPR)
Format: binding
Conditions: binding to hTfR by SPR; Table 2 peptides; read-out: KD value (SPR) class
Each entry below carries its recorded Kd.

>>> measurement("CC[C@H](C)[C@@H]1NC(=O)[C@H](Cc2ccc(O)cc2)NC(=O)[C@H](Cc2ccc(O)cc2)NC(=O)[C@H](CC(N)=O)NC(=O)[C@H](Cc2c[nH]c3ccccc23)NC(=O)[C@H](C(C)C)NC(=O)[C@H](Cc2ccccc2)NC(=O)[C@H](C(C)C)NC(=O)[C@H](C)NC(=O)CSC[C@@H](C(N)=O)NC(=O)[C@H](Cc2ccc(O)cc2)N(C)C(=O)[C@H](Cc2ccc(O)cc2)NC(=O)[C@H](CCCNC(=N)N)NC(=O)[C@H](CCCCN)NC(=O)[C@H]([C@@H](C)CC)NC1=O")
"< 1 nM"

In the following, a different compound is considered.
Any idea what its Kd is? The compound is `CC[C@H](C)[C@@H]1NC(=O)[C@H](Cc2ccc(O)cc2)NC(=O)[C@H](Cc2ccc(O)cc2)NC(=O)[C@H](CC(N)=O)NC(=O)[C@H](Cc2c[nH]c3ccccc23)NC(=O)[C@H](C(C)C)NC(=O)[C@H](Cc2ccccc2)NC(=O)[C@H](C(C)C)NC(=O)[C@H](C)NC(=O)CSC[C@@H](C(N)=O)NC(=O)[C@H](Cc2ccc(O)cc2)N(C)C(=O)[C@H](Cc2ccc(O)cc2)NC(=O)[C@H](C)NC(=O)[C@H](CCCNC(=N)N)NC(=O)[C@H]([C@@H](C)CC)NC1=O` 1 to 100 nM

====

Recorded pKd values for a group of compounds are listed next.
Biological target: transferrin receptor (hTfR) (Homo sapiens)
Assay: Intermolecular interaction evaluation test between transferrin receptor (hTfR) and peptide by surface plasmon resonance (SPR)
Format: binding
Conditions: SPR; hTfR No. 894 variants with PEG12c linker (Table 2); read-out: KD
Procedure: For each of the various synthesized peptides, the intermolecular interaction of the peptide with the transferrin receptor (hTfR) was tested by surface plasmon resonance (SPR) according to the following method. The specific test method is as follows. […]
pKd: −log10 of the molar value.

The following compounds have reported results that may help.
>>> measurement("CC[C@H](C)[C@@H]1NC(=O)[C@H](Cc2ccc(O)cc2)NC(=O)[C@H](Cc2ccc(O)cc2)NC(=O)[C@H](CC(N)=O)NC(=O)[C@H](Cc2c[nH]c3ccccc23)NC(=O)[C@H](C(C)C)NC(=O)[C@H](Cc2ccccc2)N(C)C(=O)[C@H](C(C)C)NC(=O)[C@H](C)NC(=O)CSC[C@@H](C(=O)NCCOCCOCCOCCOCCOCCOCCOCCOCCOCCOCCOCCOCCC(N)=O)NC(=O)[C@H](Cc2ccc(O)cc2)N(C)C(=O)[C@H](C)NC(=O)[C@H](CCCNC(=N)N)NC(=O)[C@H](CCCNC(=N)N)NC(=O)[C@H]([C@@H](C)CC)NC1=O [compound 123]")
"7.00 to 9.00"
>>> measurement("CC[C@H](C)[C@@H]1NC(=O)[C@H](Cc2ccc(O)cc2)NC(=O)[C@H](Cc2ccc(O)cc2)NC(=O)[C@H](CC(N)=O)NC(=O)[C@H](Cc2c[nH]c3ccccc23)NC(=O)[C@H](C(C)C)NC(=O)[C@H](Cc2ccccc2)N(C)C(=O)[C@H](C(C)C)NC(=O)[C@H](C)NC(=O)CSC[C@@H](C(=O)NCCOCCOCCOCCOCCOCCOCCOCCOCCOCCOCCOCCOCCC(N)=O)NC(=O)[C@H](CCC(=O)O)NC(=O)[C@H](Cc2ccc(O)cc2)NC(=O)[C@H](CCCNC(=N)N)NC(=O)[C@H](CCCNC(=N)N)NC(=O)[C@H]([C@@H](C)CC)NC1=O [compound 124]")
"6.00 to 7.00"
>>> measurement("CC[C@H](C)[C@@H]1NC(=O)[C@H](Cc2ccc(O)cc2)NC(=O)[C@H](Cc2ccc(O)cc2)NC(=O)[C@H](CC(N)=O)NC(=O)[C@H](CCc2ccccc2)NC(=O)[C@H](C(C)C)NC(=O)[C@H](Cc2ccccc2)N(C)C(=O)[C@H](C(C)C)NC(=O)[C@H](C)NC(=O)CSC[C@@H](C(=O)NCCOCCOCCOCCOCCOCCOCCOCCOCCOCCOCCOCCOCCC(N)=O)NC(=O)[C@H](Cc2ccc(O)cc2)N(C)C(=O)[C@H](Cc2ccc(O)cc2)NC(=O)[C@H](CCCNC(=N)N)NC(=O)[C@H](CCCNC(=N)N)NC(=O)[C@H]([C@@H](C)CC)NC1=O [compound 128]")
"7.00 to 9.00"

What is its pKd for transferrin receptor (hTfR) (Homo sapiens)? Entry: CC[C@H](C)[C@@H]1NC(=O)[C@H](Cc2ccc(O)cc2)NC(=O)[C@H](Cc2ccc(O)cc2)NC(=O)[C@H](CC(N)=O)NC(=O)[C@H](Cc2c[nH]c3ccccc23)NC(=O)[C@H](C(C)C)NC(=O)[C@H](Cc2ccccc2)N(C)C(=O)[C@H](C(C)C)NC(=O)[C@H](C)NC(=O)CSC[C@@H](C(=O)NCCOCCOCCOCCOCCOCCOCCOCCOCCOCCOCCOCCOCCC(N)=O)NC(=O)[C@H](CCCNC(=N)N)NC(=O)[C@H](Cc2ccc(O)cc2)NC(=O)[C@H](CCCNC(=N)N)NC(=O)[C@H](CCCNC(=N)N)NC(=O)[C@H]([C@@H](C)CC)NC1=O [compound 127] 7.00 to 9.00

Record CC[C@H](C)[C@@H]1NC(=O)[C@H](Cc2ccc(O)cc2)NC(=O)[C@H](Cc2ccc(O)cc2)NC(=O)[C@H](CC(N)=O)NC(=O)[C@H](Cc2cccc(F)c2)NC(=O)[C@H](C(C)C)NC(=O)[C@H](Cc2ccccc2)N(C)C(=O)[C@H](C(C)C)NC(=O)[C@H](C)NC(=O)CSC[C@@H](C(=O)NCCOCCOCCOCCOCCOCCOCCOCCOCCOCCOCCOCCOCCC(N)=O)NC(=O)[C@H](Cc2ccc(O)cc2)N(C)C(=O)[C@H](Cc2ccc(O)cc2)NC(=O)[C@H](CCCNC(=N)N)NC(=O)[C@H](CCCNC(=N)N)NC(=O)[C@H]([C@@H](C)CC)NC1=O [compound 122] : what is its pKd with transferrin receptor (hTfR) (Homo sapiens)? 7.00 to 9.00

====

Molecular target: transferrin receptor (hTfR) (Homo sapiens, UniProt P02786)
Test: Intermolecular interaction evaluation test between transferrin receptor (hTfR) and peptide by surface plasmon resonance (SPR)
Type: binding
Details: surface plasmon resonance, hTfR; read-out: KD value for hTfR by SPR (class symbol)
PROPERTY: Kd

>>> measurement("CC[C@H](C)[C@@H]1NC(=O)[C@H](Cc2ccc(OC)cc2)NC(=O)[C@H](Cc2ccc(O)cc2)NC(=O)[C@H](CC(N)=O)NC(=O)[C@H](Cc2c[nH]c3ccccc23)N(C)C(=O)[C@H](C(C)C)NC(=O)[C@H](Cc2cccc(Cl)c2)N(C)C(=O)[C@H](C(C)C)NC(=O)[C@H](C)NC(=O)CSC[C@@H](C(N)=O)NC(=O)[C@H](Cc2ccc(O)cc2)N(C)C(=O)[C@H](CCC(=O)NCCOCCOCCOCCOCCOCCOCCOCCOC)NC(=O)[C@@H](CCCNC(=N)N)NC(=O)[C@H](CCCNC(=N)N)NC(=O)[C@H]([C@@H](C)CC)NC1=O")
"< 1 nM"
>>> measurement("CC[C@H](C)[C@@H]1NC(=O)[C@H](Cc2ccc(OC)cc2)NC(=O)[C@H](Cc2ccc(O)cc2)NC(=O)[C@H](CC(N)=O)NC(=O)[C@H](Cc2c[nH]c3ccccc23)N(C)C(=O)[C@H](C(C)C)NC(=O)[C@H](Cc2cccc(Cl)c2)N(C)C(=O)[C@H](C(C)C)NC(=O)[C@H](C)NC(=O)CSC[C@@H](C(=O)N[C@H](CCC(=O)O)C(=O)N[C@H](CCC(=O)O)C(N)=O)NC(=O)[C@H](Cc2ccc(O)cc2)N(C)C(=O)[C@H](Cc2ccccc2)NC(=O)[C@@H](CCCNC(=N)N)NC(=O)C(C)(C)NC(=O)[C@H]([C@@H](C)CC)NC1=O")
"1 to 100 nM"
>>> measurement("CC[C@H](C)[C@@H]1NC(=O)[C@H](Cc2ccc(O)cc2)NC(=O)[C@H](Cc2ccc(O)cc2)NC(=O)[C@H](CC(N)=O)NC(=O)[C@H](Cc2c[nH]c3ccccc23)N(C)C(=O)[C@H](C(C)C)NC(=O)[C@H](Cc2cccc(Cl)c2)N(C)C(=O)[C@@H]2CCCC(=O)NCCCC[C@H](NC(=O)[C@H]([C@@H](C)CC)NC1=O)C(=O)N[C@@H](CCCNC(=N)N)C(=O)N[C@@H](Cc1ccc(O)cc1)C(=O)N(C)[C@@H](Cc1ccc(O)cc1)C(=O)N[C@H](C(N)=O)CSCC(=O)N[C@@H](C)C(=O)N2")
"1 to 100 nM"

Param item = `CC[C@H](C)[C@@H]1NC(=O)[C@H](Cc2ccc(OC)cc2)NC(=O)[C@H](Cc2ccc(O)cc2)NC(=O)[C@H](CC(N)=O)NC(=O)[C@H](Cc2c[nH]c3ccccc23)N(C)C(=O)[C@H](C(C)C)NC(=O)[C@H](Cc2cccc(Cl)c2)N(C)C(=O)[C@H](C(C)C)NC(=O)[C@H](C)NC(=O)CSC[C@@H](C(N)=O)NC(=O)[C@H](Cc2ccc(O)cc2)N(C)C(=O)[C@H](Cc2ccccc2)NC(=O)[C@@H](CCCNC(=N)N)NC(=O)[C@H](CCCNC(=N)N)N(C)C(=O)[C@H]([C@@H](C)CC)NC1=O` ; retrieve measured Kd. 1 to 100 nM

For `CC[C@H](C)[C@@H]1NC(=O)[C@H](Cc2ccc(OC)cc2)NC(=O)[C@H](Cc2ccc(O)cc2)NC(=O)[C@H](CC(N)=O)NC(=O)[C@H](Cc2c[nH]c3ccccc23)N(C)C(=O)[C@H](C(C)C)NC(=O)[C@H](Cc2cccc(Cl)c2)N(C)C(=O)[C@H](C(C)C)NC(=O)[C@H](C)NC(=O)CSC[C@@H](C(N)=O)NC(=O)[C@H](Cc2ccc(O)cc2)N(C)C(=O)[C@H](Cc2ccccc2)NC(=O)[C@H](CCCNC(=N)N)NC(=O)[C@H](CCCNC(=N)N)N(C)C(=O)[C@H]([C@@H](C)CC)NC1=O` , what is its reported Kd? 1 to 100 nM

What does the data say about its Kd? Entry: `CC[C@H](C)[C@@H]1NC(=O)[C@H](Cc2ccc(OC)cc2)NC(=O)[C@H](Cc2ccc(O)cc2)NC(=O)[C@H](CC(N)=O)NC(=O)[C@H](Cc2c[nH]c3ccccc23)N(C)C(=O)[C@H](C(C)C)NC(=O)[C@H](Cc2cccc(Cl)c2)N(C)C(=O)[C@H](C(C)C)NC(=O)[C@H](C)NC(=O)CSC[C@@H](C(N)=O)NC(=O)[C@H](Cc2ccc(O)cc2)N(C)C(=O)[C@H](Cc2ccccc2)NC(=O)[C@H](CCC(=O)NCCOCCOCCOCCOCCOCCOCCOCCOC)NC(=O)[C@H](CCCNC(=N)N)NC(=O)[C@H]([C@@H](C)CC)NC1=O` < 1 nM

Consider the compound `CC[C@H](C)[C@@H]1NC(=O)[C@H](Cc2ccc(OC)cc2)NC(=O)[C@H](Cc2ccc(O)cc2)NC(=O)[C@H](CC(N)=O)NC(=O)[C@H](Cc2c[nH]c3ccccc23)N(C)C(=O)[C@H](C(C)C)NC(=O)[C@H](Cc2cccc(Cl)c2)N(C)C(=O)[C@H](C(C)C)NC(=O)[C@H](C)NC(=O)CSC[C@@H](C(=O)NCCOCCOCCOCCOCCC(N)=O)NC(=O)[C@H](Cc2ccc(O)cc2)NC(=O)[C@H](Cc2ccccc2)NC(=O)[C@@H](CCCNC(=N)N)NC(=O)C(C)(C)NC(=O)[C@H]([C@@H](C)CC)NC1=O` and give its measured Kd. 1 to 100 nM

Given the entry `CC[C@H](C)[C@@H]1NC(=O)[C@H](Cc2ccc(OC)cc2)NC(=O)[C@H](Cc2ccc(O)cc2)NC(=O)[C@H](CC(N)=O)NC(=O)[C@H](Cc2c[nH]c3ccccc23)N(C)C(=O)[C@H](C(C)C)NC(=O)[C@H](Cc2cccc(Cl)c2)N(C)C(=O)[C@H](C(C)C)NC(=O)[C@H](C)NC(=O)CSC[C@@H](C(N)=O)NC(=O)[C@H](Cc2ccc(O)cc2)N(C)C(=O)[C@H](Cc2ccccc2)NC(=O)[C@H](CCC(=O)N[C@H](CCC(=O)O)C(=O)O)NC(=O)[C@H](CCCNC(=N)N)NC(=O)[C@H]([C@@H](C)CC)NC1=O` , report its measured Kd. 1 to 100 nM
